Measured half-life at 1 μM accompanies every entry in the list below.
test: Liver microsomal stability, rat liver microsomes; format: in vitro ADME; conditions: 1 μM compound, NADPH, read-out: t1/2 (min) in RLM

CCn1c(-c2ccc(Cn3nc(OC)c4cnc(-c5c(OC)ncnc5C5CC5)nc43)cc2)nc(C(F)(F)F)c1Br = > 25 min
CCn1cc(C(F)(F)F)nc1-c1ccc(Cn2nc(N3CCC3)c3cnc(-c4c(OC)ncnc4C4CC4)nc32)cc1 = < 25 min

Tell me the measured half-life at 1 μM of COc1ncnc(C2CC2)c1-c1ncc2cnn(Cc3ccc(-c4nc(C(F)(F)F)cn4C4CC4)cc3)c2n1 , please. > 25 min

Now give it for COc1ncnc(C2CC2)c1-c1ncc2cnn(Cc3ccc(-n4nc(C(F)(F)F)cc4OC)nc3)c2n1 too. > 25 min

---

assay: ADME solubility determination at pH 2.0 and pH 7.4; format: physicochemical; settings: aqueous buffer, thermodynamic from solid; PBS pH 7.4, shaken at 25° C. for 24 hours, LC-MS/MS; read-out: Solubility at pH 7.4
quantityMeasured: solubility at 24 h

A selection of reference data follows.
CCn1cc(C(F)(F)F)nc1-c1ccc([C@H](C)n2ncc3cnc(-c4c(OC)ncnc4C4CCC4)nc32)cc1 (single isomer, unassigned) = < 10 µM
CCn1cc(C(F)(F)F)nc1-c1ccc(Cn2nc(SCc3ccc(OC)cc3)c3cnc(-c4c(OC)ncnc4C4CC4)nc32)cc1 = < 10 µM
CCn1cc(C(F)(F)F)nc1-c1ccc(C(C)n2ncc3cnc(-c4c(OC)ncnc4C(C)C)nc32)cc1F (centres unmarked) = < 10 µM
COc1ncnc(C2CC2)c1-c1ncc2ncn(Cc3ccc(-n4nc(C(F)(F)F)cc4C)cc3)c2n1 = > 10 µM
COc1ncnc(C2CC2)c1-c1ncc2c(OC)nn([C@@H](C)c3ccc(-c4nc(C(F)(F)F)cn4C(C)C)cc3)c2n1 = < 10 µM
COc1ncnc(C2CC2)c1-c1ncc2cnn(Cc3ccc(-n4nc(C(F)(F)F)cc4OC)cc3)c2n1 = < 10 µM
COc1ncnc(C(C)C)c1-c1ncc2cnn(Cc3ccc(-n4nc(C(F)(F)F)cc4C)cc3)c2n1 = < 10 µM
CC(C)c1ncccc1-c1ncc2cnn(Cc3ccc(-c4nc(C(F)(F)F)cn4C)cc3)c2n1 = > 10 µM
COc1ncnc(C2CC2)c1-c1ncc2cnn(Cc3ccc(-c4nc(C(F)(F)F)cn4C(C)CF)cc3)c2n1 (centres unmarked) = > 10 µM
COc1ncnc(C2CC2)c1-c1ncc2ncn(Cc3ccc(-c4nc(C(F)(F)F)cn4C)cc3)c2n1 = > 10 µM

Tell me the measured solubility at 24 h of COc1cnn(C2CC2)c1-c1ncc2cnn(Cc3ccc(-c4nc(C(F)(F)F)cn4C)cc3)c2n1 , please. < 10 µM

Proceed to [2H]C([2H])([2H])C([2H])([2H])n1cc(C(F)(F)F)nc1-c1ccc(Cn2ncc3cnc(-c4c(OC)ncnc4C4CC4)nc32)cc1 > 10 µM

Also COc1ncnc(C2CC2)c1-c1ncc2cnn(Cc3ccc(-n4nc(C(F)(F)F)cc4OCCO)cc3)c2n1 ? < 10 µM

Then this compound: COc1nccc(C)c1-c1ncc2cnn(Cc3ccc(-c4nc(C(F)(F)F)cn4C)cc3)c2n1 < 10 µM

Lookup CCn1cc(C(F)(F)F)nc1-c1ccc(Cn2ncc3cnc(-c4c(OC)ncnc4C4CC4)nc32)cn1 < 10 µM

---

Listed next: entries and their corresponding pIC50.
biological target: USP1/UAF1 (Homo sapiens (Human)); assay: Deubiquitination assay for USP1/UAF1 activity (ubiquitin-rhodamine 110); format: biochemical; settings: Table 2; 0.05 nM USP1/UAF1, 150 nM ubiquitin-rhodamine
Sequence (O94782 whole entry): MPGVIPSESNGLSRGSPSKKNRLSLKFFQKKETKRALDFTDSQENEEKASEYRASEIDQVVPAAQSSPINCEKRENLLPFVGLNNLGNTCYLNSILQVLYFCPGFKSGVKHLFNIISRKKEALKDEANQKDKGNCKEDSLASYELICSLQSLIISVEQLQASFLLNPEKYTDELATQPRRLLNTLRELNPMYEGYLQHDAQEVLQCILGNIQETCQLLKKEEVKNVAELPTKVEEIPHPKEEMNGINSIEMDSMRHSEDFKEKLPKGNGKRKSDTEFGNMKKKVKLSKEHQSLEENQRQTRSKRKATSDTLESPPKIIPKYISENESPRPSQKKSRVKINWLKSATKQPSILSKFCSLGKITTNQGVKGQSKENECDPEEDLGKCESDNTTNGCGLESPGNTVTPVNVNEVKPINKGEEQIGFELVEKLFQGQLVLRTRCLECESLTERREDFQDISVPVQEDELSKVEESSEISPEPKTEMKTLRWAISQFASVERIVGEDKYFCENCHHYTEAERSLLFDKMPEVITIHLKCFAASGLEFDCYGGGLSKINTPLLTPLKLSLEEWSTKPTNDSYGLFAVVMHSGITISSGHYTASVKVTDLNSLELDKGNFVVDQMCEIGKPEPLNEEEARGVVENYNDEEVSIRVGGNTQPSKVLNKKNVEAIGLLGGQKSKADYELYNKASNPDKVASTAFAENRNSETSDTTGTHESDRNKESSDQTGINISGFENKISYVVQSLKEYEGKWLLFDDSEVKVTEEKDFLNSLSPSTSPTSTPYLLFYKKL
Sequence (Q8TAF3 whole entry partner): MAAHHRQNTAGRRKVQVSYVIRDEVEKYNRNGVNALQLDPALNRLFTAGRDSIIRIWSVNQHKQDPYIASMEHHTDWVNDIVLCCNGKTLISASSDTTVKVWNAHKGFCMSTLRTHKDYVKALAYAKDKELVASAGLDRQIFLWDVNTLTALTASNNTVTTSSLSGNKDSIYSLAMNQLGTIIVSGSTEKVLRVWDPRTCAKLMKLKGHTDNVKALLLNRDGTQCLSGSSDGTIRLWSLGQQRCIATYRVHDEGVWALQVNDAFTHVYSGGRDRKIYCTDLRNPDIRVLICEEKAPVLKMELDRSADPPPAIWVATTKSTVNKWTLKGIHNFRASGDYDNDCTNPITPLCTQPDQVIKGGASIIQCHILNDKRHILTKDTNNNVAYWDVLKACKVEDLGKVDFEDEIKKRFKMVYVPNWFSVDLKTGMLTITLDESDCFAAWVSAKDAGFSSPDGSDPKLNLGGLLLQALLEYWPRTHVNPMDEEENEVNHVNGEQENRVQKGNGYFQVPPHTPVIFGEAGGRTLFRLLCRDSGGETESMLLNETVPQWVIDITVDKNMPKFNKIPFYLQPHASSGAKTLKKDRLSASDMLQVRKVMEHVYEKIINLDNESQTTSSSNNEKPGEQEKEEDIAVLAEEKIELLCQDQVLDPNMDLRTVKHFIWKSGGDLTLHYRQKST
pIC50: −log10 of the molar value.

Answered examples (5):
Cc1cccc(S(C)(=O)=O)c1-c1ncc2cnn(Cc3ccc(-c4nc(C(F)(F)F)cn4C)cc3)c2n1 = 6.70 to 7.00
COc1cccc(C)c1-c1ncc2cnn(Cc3ccc(-c4nc(C(F)(F)F)cn4C)cc3)c2n1 [drawing 717] = 7.00 to 8.00
CC(C)c1ccccc1-c1ncc2ncn(Cc3ccc(-c4nc(C(F)(F)F)cn4C)cc3)c2n1 [drawing 719] = 7.00 to 8.00
COc1ncnc(C2CC2)c1-c1ncc2cnn(Cc3ccc(-c4nc(C(F)(F)F)cn4C)cc3)c2n1 [drawing 720] = 7.00 to 8.00
CC(C)c1ccccc1-c1ncc2cnn(Cc3ccc(-c4nc(C(F)(F)F)cn4C4CN(C)C4)cc3)c2n1 [drawing 725] = > 8.00

Endpoint output: pIC50 of COc1cnccc1-c1ncc2cnn(Cc3ccc(-c4nc(C(F)(F)F)cn4C)cc3)c2n1 . Value? < 6.70

Check CSc1cccc(C)c1-c1ncc2cnn(Cc3ccc(-c4nc(C(F)(F)F)cn4C)cc3)c2n1 [drawing 722] too. 7.00 to 8.00

Request: COc1nccc(C#N)c1-c1ncc2cnn(Cc3ccc(-c4nc(C(F)(F)F)cn4C)cc3)c2n1 7.00 to 8.00

---

assay: ADME solubility determination at pH 2.0 and pH 7.4; assay type: physicochemical; conditions: aqueous buffer, thermodynamic from solid; PBS pH 7.4, shaken at 25° C. for 24 hours, LC-MS/MS; read-out: Solubility at pH 7.4
quantityMeasured: solubility at 24 h

Completed entries (count: 6):
CCn1cc(C(F)(F)F)nc1-c1ccc(Cn2ncc3cnc(-c4c(OCCF)ncnc4C4CC4)nc32)cc1 = < 10 µM
Cc1cc(C(F)F)nn1-c1ccc(Cn2ncc3cnc(-c4cccnc4C(C)C)nc32)cc1 = < 10 µM
CCc1nc2cnc(-c3c(OC)ncnc3C3CC3)nc2n1Cc1ccc(-n2nc(C(F)(F)F)cc2C)cc1 = > 10 µM
CCOc1ncnc(OCC)c1-c1ncc2cnn(Cc3ccc(-c4nc(C(F)(F)F)cn4CC)cc3)c2n1 = < 10 µM
COCc1nc2cnc(-c3c(OC)ncnc3C3CC3)nc2n1Cc1ccc(-c2nc(C(F)(F)F)cn2C(C)C)cc1 = > 10 µM
CCn1cc(C(F)(F)F)nc1-c1ccc(Cn2ncc3cnc(-c4c(OC)ncnc4C4CC4)nc32)cc1 = < 10 µM

# context switch: different compound, same solubility at 24 h
GET /values?readout=solubility at 24 h&item= COc1ncnc(C2CC2)c1-c1ncc2cnn([C@@H](C)c3ccc(-c4nc(C(F)(F)F)cn4C(C)C)cc3)c2n1 < 10 µM

---

Quick list: half-life at 1 μM per entry.
assay: Liver microsomal stability, human liver microsomes; assay type: in vitro ADME; conditions: 1 μM compound, NADPH, read-out: t1/2 (min) in HLM

Examples from the recorded data:
COc1nc(C)nc(C2CC2)c1-c1ncc2cnn(Cc3ccc(-c4nc(C(F)(F)F)cn4C)cc3)c2n1 = < 25 min
COc1ncnc(C2CC2)c1-c1ncc2cnn(Cc3ccc(-n4nc(C(F)(F)F)cc4OC)nc3)c2n1 = > 25 min

half-life at 1 μM for COc1ncnc(C2CC2)c1-c1ncc2nc(C(C)C)n(Cc3ccc(-n4nc(C(F)(F)F)cc4C)cc3)c2n1 ? > 25 min

Again, but for COc1ncnc(C2CC2)c1-c1ncc2cnn(Cc3ccc(-c4nc(C(F)(F)F)c(OC)n4C(C)C)cc3)c2n1 < 25 min

Check COc1ncnc(C2CC2)c1-c1ncc2cnn(Cc3ccc(-c4cn(C(C)C)c(C(F)(F)F)n4)cc3)c2n1 too. > 25 min

---

Measured solubility at 24 h, listed per entry for reference.
experiment: ADME solubility determination at pH 2.0 and pH 7.4; assay type: physicochemical; settings: aqueous buffer, thermodynamic from solid; PBS pH 7.4, shaken at 25° C. for 24 hours, LC-MS/MS; read-out: Solubility at pH 7.4

COc1ncnc(C2CC2)c1-c1ncc2cnn(Cc3ccc(-c4nc(C(F)(F)F)c5n4CCNC5)cc3)c2n1 = < 10 µM
COc1ncnc(OC)c1-c1ncc2cnn(Cc3ccc(-c4nc(C(F)(F)F)cn4C(C)C)cc3)c2n1 = > 10 µM
COc1cnn(C2CC2)c1-c1ncc2cnn(Cc3ccc(-c4nc(C(F)(F)F)cn4C(C)C)cc3)c2n1 = < 10 µM
COc1ncnc(C2CC2)c1-c1ncc2nc(C(C)C)n(Cc3ccc(-n4nc(C(F)(F)F)cc4C)cc3)c2n1 = < 10 µM
CCn1cc(C(F)(F)F)nc1-c1ccc(Cn2ncc3cnc(-c4c(OC(C)(C)C)ncnc4C4CC4)nc32)cc1 = < 10 µM

Look up solubility at 24 h for this compound: COc1ncnc(C2CC2)c1-c1ncc2cnn(Cc3ccc(-n4nc(C#N)cc4OC)cc3)c2n1 < 10 µM

And for COc1ncnc(C2CC2)c1-c1ncc2cnn(Cc3ccc(-c4nc(C(F)(F)F)cn4CCF)cc3)c2n1 ? > 10 µM

Proceed to COc1ncnc(C2CC2)c1-c1ncc2cnn(Cc3ccc(-n4nc(C(F)(F)F)cc4OC4CNC4)cc3)c2n1 > 10 µM

Also COc1ncnc(C2CC2)c1-c1ncc2nc(C)n(Cc3ccc(-n4nc(C(F)(F)F)cc4C)cc3)c2n1 , if possible. > 10 µM

Please give the result for COc1ncnc(C2CC2)c1-c1ncc2c(OC)nn([C@@H](C)c3ccc(-c4nc(C(F)(F)F)cn4CCF)cc3)c2n1 too. < 10 µM

Thanks! And COc1ncnc(C)c1-c1ncc2cnn(Cc3ccc(-n4nc(C(F)(F)F)cc4C)cc3)c2n1 ? < 10 µM

Origin of the recorded values: patent US11485736B2
